TEST NAME: Cytotoxicity against human SPCA2 cells after 48 hrs by MTT assay
Format: functional, cell-based
CONDITION DETAILS: SPCA2, 48 h
MEASURED PROPERTY: pIC50
One number for each entry, as −log10 of the molar value.

Take a look at these entries with their results.
CCOP(=O)(OCC)C(NC(=O)c1cc(O)c2c(c1)C(=O)c1cccc(O)c1C2=O)c1ccc(OC)cc1 (stereo not drawn)	4.41
O=c1[nH]cc(F)c(=O)[nH]1	4.37
CCOP(=O)(OCC)C(NC(=O)c1cc(O)c2c(c1)C(=O)c1cccc(O)c1C2=O)c1ccc(Cl)cc1 (stereo not drawn)	4.05

I would be grateful if you could provide pIC50 for each of the following entries.
1. CCOP(=O)(OCC)C(NC(=O)c1cc(O)c2c(c1)C(=O)c1cccc(O)c1C2=O)c1cccc(F)c1 (stereo not drawn)
2. CCOP(=O)(OCC)C(NC(=O)c1cc(O)c2c(c1)C(=O)c1cccc(O)c1C2=O)c1cccc(OC)c1 (stereo not drawn)
3. CCOP(=O)(OCC)C(NC(=O)c1cc(O)c2c(c1)C(=O)c1cccc(O)c1C2=O)c1cccc(C)c1 (stereo not drawn)

## Result
1: 4.26; 2: 4.55; 3: 4.17

###

System: HCT-116
TEST NAME: Cytotoxicity against human HCT116 cells
Assay type: functional, cell-based
MEASURED PROPERTY: IC50
Write the numeric value and follow it with the unit.

## Task Identify measured IC50 corresponding to O=C(O)c1cc(O)c2c(c1)C(=O)c1cccc(O)c1C2=O [RHEIN]
## Result 135 µM

###

Tested on: HepG2
TEST NAME: Cytotoxicity against human HepG2 cells after 48 hrs by MTT assay
Format: functional, cell-based
CONDITION DETAILS: HepG2, 48 h
MEASURED PROPERTY: IC50 (µM)
Answers are plain numbers, in µM.

Take a look at these entries with their results.
CCOP(=O)(OCC)C(NC(=O)c1cc(O)c2c(c1)C(=O)c1cccc(O)c1C2=O)c1ccccc1Cl (stereo not drawn)	39.2
CCOP(=O)(OCC)C(NC(=O)c1cc(O)c2c(c1)C(=O)c1cccc(O)c1C2=O)c1ccccc1Br (stereo not drawn)	88.3
CCOP(=O)(OCC)C(NC(=O)c1cc(O)c2c(c1)C(=O)c1cccc(O)c1C2=O)c1ccc(OC)cc1 (stereo not drawn)	44.4
CCOP(=O)(OCC)C(NC(=O)c1cc(O)c2c(c1)C(=O)c1cccc(O)c1C2=O)c1ccccc1F (stereo not drawn)	71.2
CCOP(=O)(OCC)C(NC(=O)c1cc(O)c2c(c1)C(=O)c1cccc(O)c1C2=O)c1cccc(Br)c1 (stereo not drawn)	62.4

I would be grateful if you could provide IC50 for each of the following entries.
1. CCOP(=O)(OCC)C(NC(=O)c1cc(O)c2c(c1)C(=O)c1cccc(O)c1C2=O)c1cccc(OC)c1 (stereo not drawn)
2. CCOP(=O)(OCC)C(NC(=O)c1cc(O)c2c(c1)C(=O)c1cccc(O)c1C2=O)c1ccc(Cl)cc1 (stereo not drawn)

## Result
1. 22.1
2. 87.3

###

System: HepG2
TEST NAME: Cytotoxicity against human HepG2 cells after 48 hrs by MTT assay
Type: functional, cell-based
CONDITION DETAILS: HepG2, 48 h
MEASURED PROPERTY: pIC50
Give bare numbers, as −log10 of the molar value.

Take a look at these entries with their results.
CCOP(=O)(OCC)C(NC(=O)c1cc(O)c2c(c1)C(=O)c1cccc(O)c1C2=O)c1ccccc1 (stereo unspecified)	4.41
CCOP(=O)(OCC)C(NC(=O)c1cc(O)c2c(c1)C(=O)c1cccc(O)c1C2=O)c1cccc(C)c1 (stereo unspecified)	4.21
CCOP(=O)(OCC)C(NC(=O)c1cc(O)c2c(c1)C(=O)c1cccc(O)c1C2=O)c1cccc(Cl)c1 (stereo unspecified)	4.14
O=c1[nH]cc(F)c(=O)[nH]1	4.52

Next up:
## Task # return pIC50 of CCOP(=O)(OCC)C(NC(=O)c1cc(O)c2c(c1)C(=O)c1cccc(O)c1C2=O)c1ccc(Br)cc1 (stereo unspecified) (system: HepG2)
## Result 4.03
